These data points were gathered from ChEMBL document CHEMBL4616670.

- RUN_DESCRIPTION: in vitro
- APPLIED_CONDITIONS: human, Caco-2
- Description: Permeability across apical to basolateral side in human Caco2 cells measured up to 2 hrs by LC-MS/MS analysis or scintillation counting method
# reported Papp A→B at 2 h; entries follow
Your answer is read as ×10⁻⁶ cm/s, so omit the unit and give the number.

// known answers, use as guide
[[record]]
molecule = "Cc1ccc(NC(=O)c2ccc(P(C)(C)=O)cc2)cc1Nc1nccc(-c2cccnc2)n1"
experimental_readout = "Papp A→B at 2 h"
unit_text = "×10⁻⁶ cm/s"
reported_measurement = 0.1

[[record]]
molecule = "CN=S(C)(=O)c1ccc(C(F)(F)F)cc1 (stereo not given)"
experimental_readout = "Papp A→B at 2 h"
unit_text = "×10⁻⁶ cm/s"
reported_measurement = 67

[[record]]
molecule = "NC(=O)c1ccc(C(F)(F)F)cc1"
experimental_readout = "Papp A→B at 2 h"
unit_text = "×10⁻⁶ cm/s"
reported_measurement = 68

[[record]]
molecule = "O=P1(c2ccc(C(F)(F)F)cc2)CCNCC1"
experimental_readout = "Papp A→B at 2 h"
unit_text = "×10⁻⁶ cm/s"
reported_measurement = 13


Moving on to another molecule below.
## Input Give the measured Papp A→B at 2 h of `CC(C)N1CCP(=O)(c2ccc(C(F)(F)F)cc2)CC1` .
## Output 84
